# study.target: Interleukin-2 (Homo sapiens)
# Sequence (P60568 whole entry): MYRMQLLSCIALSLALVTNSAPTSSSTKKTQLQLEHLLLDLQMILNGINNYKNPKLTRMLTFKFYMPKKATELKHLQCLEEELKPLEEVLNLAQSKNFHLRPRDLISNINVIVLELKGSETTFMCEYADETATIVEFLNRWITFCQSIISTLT
# protocol.summary: Inhibition of IL2-induced STAT5 phosphorylation in human NK92 cells incubated for 30 mins followed by IL-2 stimulation and measured after 1 hr by alphascreen assay
Catalogue of IC50 values
parameter.measured: IC50

                                 smiles_data  meas_value
 0  Cn1c(Cc2nn(CCCO[Si](C)(C)C(C)(C)C)c(=O)c3ccccc23)nnc1SCCCCCCCC(=O)Nc1ccc(Cl)cc1Cl     > 30 µM
 1  Cn1nc(Cc2nnc(SCCCCCCCC(=O)Nc3ccc(Cl)cc3Cl)n2CCCO[Si](C)(C)C(C)(C)C)c2ccccc2c1=O     > 30 µM
 2  Cn1c(Cc2nn(CCC3OCCO3)c(=O)c3ccccc23)nnc1SCC(=O)Nc1ccc(Cl)cc1Cl     > 30 µM
 3  Cn1nc(Cc2nnc(SCC(=O)Nc3ccc(Cl)cc3Cl)n2CCCO)c2ccccc2c1=O     > 30 µM
 4  Cn1c(Cc2nn(CCC=O)c(=O)c3ccccc23)nnc1SCCCCCCCC(=O)Nc1ccc(Cl)cc1Cl     21.9 µM
 5  Cn1nc(Cc2nnc(SCCCCCCCC(=O)Nc3ccc(Cl)cc3Cl)[nH]2)c2ccccc2c1=O     0.45 µM
 6  Cn1nc(Cc2nnc(SCC(=O)Nc3ccc(Cl)cc3Cl)n2CCC(=O)O)c2ccccc2c1=O     > 30 µM
 7  Cn1c(Cc2nn(CCC(=O)O)c(=O)c3ccccc23)nnc1SCC(=O)Nc1ccc(Cl)cc1Cl     > 30 µM
 8  Cn1c(Cc2nn(C)c(=O)c3ccccc23)nnc1SCCCCCCCC(=O)Nc1ccc(C(=O)c2ccccc2)cc1     0.08 µM
 9  Cn1c(Cc2nn(C)c(=O)c3ccccc23)nnc1SCC(=O)Nc1ccc(Cl)cc1Cl      7.7 µM
10  CN(C)CCCn1c(Cc2nn(C)c(=O)c3ccccc23)nnc1SCCCCCCCC(=O)Nc1ccc(Cl)cc1Cl     > 30 µM
11  Cn1c(Cc2nn(CCCO)c(=O)c3ccccc23)nnc1SCC(=O)Nc1ccc(Cl)cc1Cl     > 30 µM
12  CCOC(CCn1c(Cc2nn(C)c(=O)c3ccccc23)nnc1SCC(=O)Nc1ccc(Cl)cc1Cl)OCC     > 30 µM
13  Cn1nc(Cc2nnc(SCC(=O)Nc3ccc(Cl)cc3Cl)n2CCC=O)c2ccccc2c1=O      8.6 µM
14  Cn1nc(Cc2nnc(SCCCCCCCC(=O)Nc3ccc(Cl)cc3Cl)n2CCCO)c2ccccc2c1=O     > 30 µM
15  Cn1c(Cc2n[nH]c(=O)c3ccccc23)nnc1SCCCCCCCC(=O)Nc1ccc(Cl)cc1Cl     > 30 µM
16  CN(C)CCCn1nc(Cc2nnc(SCCCCCCCC(=O)Nc3ccc(Cl)cc3Cl)n2C)c2ccccc2c1=O     > 30 µM
17  Cn1c(Cc2nn(C)c(=O)c3ccccc23)nnc1SCCCCCCCC(=O)Nc1ccc(Cl)cc1Cl     0.35 µM
18  Cn1nc(Cc2nnc(SCCCCCCCC(=O)Nc3ccc(Cl)cc3Cl)n2CCC=O)c2ccccc2c1=O     0.96 µM

====

# study.target: Interleukin-15 (Homo sapiens, UniProt P40933)
# Sequence (P40933 whole entry): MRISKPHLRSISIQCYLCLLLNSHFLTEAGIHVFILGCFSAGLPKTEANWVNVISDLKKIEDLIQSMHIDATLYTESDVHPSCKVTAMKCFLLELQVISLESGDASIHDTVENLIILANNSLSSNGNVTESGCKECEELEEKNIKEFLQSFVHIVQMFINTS
# protocol.summary: Inhibition of IL-15-induced STAT5 phosphorylation in human NK92 cells incubated for 30 mins followed by IL-15 stimulation and measured after 1 hr by alphascreen assay
parameter.measured: IC50

>>> print(df.to_string())
                                 smiles_data  meas_value
 0  Cn1nc(Cc2nnc(SCCCCCCCC(=O)Nc3ccc(Cl)cc3Cl)n2CCCO[Si](C)(C)C(C)(C)C)c2ccccc2c1=O     > 30 µM
 1  Cn1c(Cc2nn(CCC(=O)O)c(=O)c3ccccc23)nnc1SCC(=O)Nc1ccc(Cl)cc1Cl     > 30 µM
 2  Cn1c(Cc2nn(CCC(=O)O)c(=O)c3ccccc23)nnc1SCCCCCCCC(=O)Nc1ccc(Cl)cc1Cl     > 30 µM
 3  CN(C)CCCn1c(Cc2nn(C)c(=O)c3ccccc23)nnc1SCCCCCCCC(=O)Nc1ccc(Cl)cc1Cl     > 30 µM
 4  CCOC(CCn1c(Cc2nn(C)c(=O)c3ccccc23)nnc1SCC(=O)Nc1ccc(Cl)cc1Cl)OCC     > 30 µM
 5  Cn1c(Cc2nn(CCCO[Si](C)(C)C(C)(C)C)c(=O)c3ccccc23)nnc1SCCCCCCCC(=O)Nc1ccc(Cl)cc1Cl     > 30 µM
 6  Cn1nc(Cc2nnc(SCCCCCCCC(=O)Nc3ccc(Cl)cc3Cl)n2CCC=O)c2ccccc2c1=O     0.71 µM
 7  Cn1c(Cc2nn(CCC=O)c(=O)c3ccccc23)nnc1SCC(=O)Nc1ccc(Cl)cc1Cl       20 µM
 8  Cn1c(Cc2n[nH]c(=O)c3ccccc23)nnc1SCCCCCCCC(=O)Nc1ccc(Cl)cc1Cl       20 µM
 9  Cn1c(Cc2nn(C)c(=O)c3ccccc23)nnc1SCCCCCCCC(=O)Nc1ccc(C(=O)c2ccccc2)cc1     0.05 µM
10  Cn1nc(Cc2nnc(SCC(=O)Nc3ccc(Cl)cc3Cl)n2CCCO)c2ccccc2c1=O     > 30 µM
11  CN(C)CCCn1nc(Cc2nnc(SCCCCCCCC(=O)Nc3ccc(Cl)cc3Cl)n2C)c2ccccc2c1=O     > 30 µM
12  Cn1nc(Cc2nnc(SCC(=O)Nc3ccc(Cl)cc3Cl)n2CCC(=O)O)c2ccccc2c1=O     > 30 µM
13  CN(C)CCCn1nc(Cc2nnc(SCC(=O)Nc3ccc(Cl)cc3Cl)n2C)c2ccccc2c1=O     > 30 µM
14  Cn1nc(Cc2nnc(SCCCCCCCC(=O)Nc3ccc(Cl)cc3Cl)n2CCCO)c2ccccc2c1=O     > 30 µM
15  Cn1c(Cc2nn(CCCO)c(=O)c3ccccc23)nnc1SCCCCCCCC(=O)Nc1ccc(Cl)cc1Cl     > 30 µM
